The reported numbers originate from ChEMBL document CHEMBL1146618.

# SYSTEM TESTED: Tyrosine-protein kinase Lck (Homo sapiens)
# Sequence (P06239 whole entry): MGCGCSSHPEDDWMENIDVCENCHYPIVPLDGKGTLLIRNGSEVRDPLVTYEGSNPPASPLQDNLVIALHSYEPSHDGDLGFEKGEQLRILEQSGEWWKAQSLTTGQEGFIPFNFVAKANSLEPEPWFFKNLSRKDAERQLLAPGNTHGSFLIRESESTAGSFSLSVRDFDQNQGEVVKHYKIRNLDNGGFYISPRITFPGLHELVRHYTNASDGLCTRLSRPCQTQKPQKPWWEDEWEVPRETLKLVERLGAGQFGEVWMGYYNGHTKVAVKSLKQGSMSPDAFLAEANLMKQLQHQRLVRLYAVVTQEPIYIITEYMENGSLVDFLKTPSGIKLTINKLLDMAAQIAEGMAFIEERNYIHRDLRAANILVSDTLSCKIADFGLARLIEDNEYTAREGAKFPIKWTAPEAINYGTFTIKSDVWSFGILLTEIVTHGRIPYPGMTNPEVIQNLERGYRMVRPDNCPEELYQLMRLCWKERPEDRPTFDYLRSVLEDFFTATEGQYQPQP
# ASSAY PROTOCOL: Inhibition of human p56 Lck tyrosine kinase
ASSAY ENDPOINT: pIC50
By convention, pIC50 is the negative base-10 log of a molar concentration.

Here's what some known entries look like.
{"STRUCTURE STRING": "Cc1cccc(Cl)c1NC(=O)c1ccc2nc(Nc3cccc(NCC(C)(C)N)n3)sc2c1", "ASSAY ENDPOINT": "pIC50", "TEST RESULT": 8.22}
{"STRUCTURE STRING": "CNN1CCN(Cc2ccnc(Nc3nc4ccc(C(=O)Nc5c(C)cccc5Cl)cc4s3)c2)CC1", "ASSAY ENDPOINT": "pIC50", "TEST RESULT": 9.00}
{"STRUCTURE STRING": "Cc1cc(C)c(NC(=O)c2ccc3nc(Nc4nccnn4)sc3c2)c(C)c1", "ASSAY ENDPOINT": "pIC50", "TEST RESULT": 5.72}
{"STRUCTURE STRING": "Cc1cccc(Cl)c1NC(=O)c1ccc2nc(NN3C=CC=CN3)sc2c1", "ASSAY ENDPOINT": "pIC50", "TEST RESULT": 7.39}
{"STRUCTURE STRING": "Cc1cc(C)c(NC(=O)c2ccc3nc(Nc4ccccc4)sc3c2)c(C)c1", "ASSAY ENDPOINT": "pIC50", "TEST RESULT": 5.76}
{"STRUCTURE STRING": "Cc1cccc(Cl)c1NC(=O)c1ccc2nc(Nc3cc(Cl)ncn3)sc2c1", "ASSAY ENDPOINT": "pIC50", "TEST RESULT": 7.70}
{"STRUCTURE STRING": "Cc1cc(C)c(NC(=O)c2ccc3nc(Nc4cnccn4)sc3c2)c(C)c1", "ASSAY ENDPOINT": "pIC50", "TEST RESULT": 6.63}

Please fill in: pIC50 reported for Cc1cccc(Cl)c1NC(=O)c1ccc2nc(Nc3ccccc3)sc2c1 = 6.49
